# Tested on: Candida albicans IAM 4905
# test_method_notes: Antifungal activity, agar-dilution MIC, organism No. 29
# Format: cell-based
# measurement_context: Candida albicans, IAM4905; Organism No. 29, bouillon-agar; read-out: Minimum Inhibitory Concentration
log10 MIC for assorted molecules
outcome_measure: log10 MIC (log10 of the value in µg/mL)

>  <molecule>
[C-]#[N+]C12CC3(/C=C/C(=O)OCc4cccc(OC)c4)OC3C1O2 (centres unmarked)

>  <log10 MIC>
0.19

$$$$
>  <molecule>
[C-]#[N+]C12CC3(/C=C/C(=O)OCc4cc([N+](=O)[O-])ccc4OC)OC3C1O2 (centres unmarked)

>  <log10 MIC>
0.50

$$$$
>  <molecule>
[C-]#[N+]C12CC3(/C=C/C(=O)OCC(=O)c4cccc(OC)c4)OC3C1O2 (centres unmarked)

>  <log10 MIC>
0.19

$$$$
>  <molecule>
[C-]#[N+]C12CC3(/C=C/C(=O)Nc4ccc5c(c4)CCC5)OC3C1O2 (centres unmarked)

>  <log10 MIC>
2.30

$$$$
>  <molecule>
[C-]#[N+]C12CC3(/C=C/C(=O)N4CCCC4)OC3C1O2 (centres unmarked)

>  <log10 MIC>
0.80

$$$$
>  <molecule>
[C-]#[N+]C12CC3(/C=C/C(=O)Nc4ccccc4N)OC3C1O2 (centres unmarked)

>  <log10 MIC>
1.40

$$$$

----------
# System: Candida albicans IAM 4905
# test_method_notes: Antifungal activity, agar-dilution MIC, organism No. 29
# Format: cell-based
# measurement_context: Candida albicans, IAM4905; Organism No. 29, bouillon-agar; read-out: Minimum Inhibitory Concentration
outcome_measure: MIC (µg/mL)

>  <compound>
[C-]#[N+]C12CC3(/C=C/C(=O)NOCc4ccccc4)OC3C1O2 (centres unmarked)

>  <experimental_system>
Candida albicans IAM 4905

>  <u>
µg/mL

>  <observed>
0.39

$$$$
>  <compound>
[C-]#[N+]C12CC3(/C=C/C(=O)Nc4nc5ccccc5s4)OC3C1O2 (centres unmarked)

>  <experimental_system>
Candida albicans IAM 4905

>  <u>
µg/mL

>  <observed>
1.56

$$$$
>  <compound>
[C-]#[N+]C12CC3(/C=C/C(=O)Nc4ccc(I)cc4)OC3C1O2 (centres unmarked)

>  <experimental_system>
Candida albicans IAM 4905

>  <u>
µg/mL

>  <observed>
3.13

$$$$
>  <compound>
[C-]#[N+]C12CC3(/C=C/C(=O)Nc4ccc(C)cc4)OC3C1O2 (centres unmarked)

>  <experimental_system>
Candida albicans IAM 4905

>  <u>
µg/mL

>  <observed>
0.39

$$$$
>  <compound>
[C-]#[N+]C12CC3(/C=C/C(=O)OCc4cccc([N+](=O)[O-])c4)OC3C1O2 (centres unmarked)

>  <experimental_system>
Candida albicans IAM 4905

>  <u>
µg/mL

>  <observed>
12.5

$$$$
>  <compound>
[C-]#[N+]C12CC3(/C=C/C(=O)Nc4cccc(Cl)c4)OC3C1O2 (centres unmarked)

>  <experimental_system>
Candida albicans IAM 4905

>  <u>
µg/mL

>  <observed>
0.8

$$$$
>  <compound>
[C-]#[N+]C12CC3(/C=C/C(=O)NC4=NCCS4)OC3C1O2 (centres unmarked)

>  <experimental_system>
Candida albicans IAM 4905

>  <u>
µg/mL

>  <observed>
25

$$$$
>  <compound>
[C-]#[N+]C12CC3(/C=C/C(=O)Nc4ccc(S(N)(=O)=O)cc4)OC3C1O2 (centres unmarked)

>  <experimental_system>
Candida albicans IAM 4905

>  <u>
µg/mL

>  <observed>
100

$$$$
>  <compound>
[C-]#[N+]C12CC3(/C=C/C(=O)Nc4ccccc4)OC3C1O2 (centres unmarked)

>  <experimental_system>
Candida albicans IAM 4905

>  <u>
µg/mL

>  <observed>
0.39

$$$$
>  <compound>
[C-]#[N+]C12CC3(/C=C/C(=O)Nc4cccc(C(F)(F)F)c4)OC3C1O2 (centres unmarked)

>  <experimental_system>
Candida albicans IAM 4905

>  <u>
µg/mL

>  <observed>
1.56

$$$$
>  <compound>
[C-]#[N+]C12CC3(/C=C/C(=O)Nc4ccc(F)cc4)OC3C1O2 (centres unmarked)

>  <experimental_system>
Candida albicans IAM 4905

>  <u>
µg/mL

>  <observed>
0.39

$$$$
>  <compound>
[C-]#[N+]C12CC3(/C=C/C(=O)Nc4nccs4)OC3C1O2 (centres unmarked)

>  <experimental_system>
Candida albicans IAM 4905

>  <u>
µg/mL

>  <observed>
12.5

$$$$
>  <compound>
[C-]#[N+]C12CC3(/C=C/C(=O)Nc4ccccc4C)OC3C1O2 (centres unmarked)

>  <experimental_system>
Candida albicans IAM 4905

>  <u>
µg/mL

>  <observed>
0.39

$$$$
>  <compound>
[C-]#[N+]C12CC3(/C=C/C(=O)OCc4ccc([N+](=O)[O-])cc4)OC3C1O2 (centres unmarked)

>  <experimental_system>
Candida albicans IAM 4905

>  <u>
µg/mL

>  <observed>
6.25

$$$$
>  <compound>
[C-]#[N+]C12CC3(/C=C/C(=O)Nc4ccc5c(c4)OCO5)OC3C1O2 (centres unmarked)

>  <experimental_system>
Candida albicans IAM 4905

>  <u>
µg/mL

>  <observed>
0.39

$$$$
>  <compound>
[C-]#[N+]C12CC3(/C=C/C(=O)Nc4cccc(C(=O)O)c4)OC3C1O2 (centres unmarked)

>  <experimental_system>
Candida albicans IAM 4905

>  <u>
µg/mL

>  <observed>
100

$$$$
>  <compound>
[C-]#[N+]C12CC3(/C=C/C(=O)OCC(=O)c4ccc([N+](=O)[O-])cc4)OC3C1O2 (centres unmarked)

>  <experimental_system>
Candida albicans IAM 4905

>  <u>
µg/mL

>  <observed>
25

$$$$
